Ref: patent US20230094463A1

Items are presented alongside their recorded percent blockade of GAL3-ITGaV interaction.
target: T1, Human GAL3 protein (TrueBinding, QCB200349 / QCB200352; R&D Systems, 8259-GA) (human, UniProt P17931 2-250)
T1 construct: also called human galectin-3
T1 sequence (P17931 2-250 limits assumed): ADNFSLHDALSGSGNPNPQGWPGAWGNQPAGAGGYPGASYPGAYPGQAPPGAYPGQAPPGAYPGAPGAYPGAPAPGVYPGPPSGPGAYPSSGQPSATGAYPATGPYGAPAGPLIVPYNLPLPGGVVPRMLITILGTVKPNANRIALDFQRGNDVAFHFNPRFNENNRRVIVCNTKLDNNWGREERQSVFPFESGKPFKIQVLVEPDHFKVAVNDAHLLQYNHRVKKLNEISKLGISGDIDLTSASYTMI
assayName: blocking ELISA (GAL3 coated; antibody + biotinylated ITGaV); note: test concentration or dose not given here

13G4.2F8 (antibody, V domains shown) VH: QVQLQQPGAELVKPGASVKLSCKASGYTFTSYWMHWVKQRPGQGLEWIGMIHPNSGSTDYNEKFKNKATLNVDKSSSTAYIQLSSLTSEDSAVYYCTRWGIYYYARDYWGQGTTLTVSS VL: DIVMTQSQKFMSTSVGERVSITCKASQNVGTNVAWYQQKAGQSLELLIYGASNRHTGVPDRFTGSGSGTDFTLTITNVQSEDMTNYFCEQYSNFPLTFGAGTKLELK : < 30%
F846C.2H3 (antibody, V domains shown, also called 846.2H3) VH: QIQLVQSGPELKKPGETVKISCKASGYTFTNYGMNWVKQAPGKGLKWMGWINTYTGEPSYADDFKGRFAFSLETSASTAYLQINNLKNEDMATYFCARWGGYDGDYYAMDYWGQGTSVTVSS VL: NIMMTQSPSSLAVSAGEKVTMSCKSSQSVLYSSNQKNYLAWYQQKPGQSPKLLIYWASTRESGVPDRFTGSGSGTDFTLTISSVQPEDLAVYYCHQYLSSLTFGAGTKLELK : > 90%

Request: Recorded percent blockade of GAL3-ITGaV interaction for 20H5.A3 (antibody, V domains shown) VH: QIQLVQSGPELKKPGESVKISCKASGYAFTTYGMSWVQQAPGKGLKWMGWVNTYSGVPTCADDFKGRFAFSLETSASTAYLQINNLRNEDTATYFCARGPYAMDYWGQGTSVTVSS VL: DIQMTQTTSSLSASLGDRVTINCSASQDISNYLNWYQQKPDGTVKLLIYYTSSLLSGVPSRFSGSGSGTDYSLTISNLEPEDIATYFCQQYSKLPYTFGSGTHLEIK , please?
Result: > 90%

Request: What about F847C.11B1 (antibody, V domains shown, anti-Gal3 antibody; also called 847.11B1) VH: EVQLQQSGPELVKPGASVKISCKASGNTFTDHNMHWVKQSHGKSLEWIGYIYPYNGGTGYNQKFKSKATLTVDNSSSTVYMELRSLTSEDSAVYYCARGEYDYLAWFAYWGQGTLVTVSA VL: EIVLTQSPASLSVTTGEKVTIRCITSIDIDDDMNWYQQKPGEPPKLLISEGNTLRPGVPSRFSSSGYGTDFVFTIENTLSEDVADYYCLQSDNKPLTFGAGTKLELKR ?
Result: < 30%

Request: What about F847C.26F5 (antibody, V domains shown, also called 847.26F5) VH: QIQLVQSGPEVKKPGETVKISCKASGYIFTNYGMNWVKQAPGKGLKWMGWINTYTGEPTYTDDFKGRFAFSLETSASTAYLQINNLKNEDTATYFCAKFGNYVGAMDYWGQGTSVTVSS VL: EIKMNQSPSSLSASLGDTITITCHASQNINVWLSWYQQKPGNIPKLLIYKASNLHTGVPSRFSGSGSGTGFTLTISSLQPEDIATYYCQQGQSYPYTFGGGTKLELK ?
Result: > 90%
